# system_tested: Thymidylate synthase (Pneumocystis carinii, UniProt P13100)
# Sequence (P13100 whole entry): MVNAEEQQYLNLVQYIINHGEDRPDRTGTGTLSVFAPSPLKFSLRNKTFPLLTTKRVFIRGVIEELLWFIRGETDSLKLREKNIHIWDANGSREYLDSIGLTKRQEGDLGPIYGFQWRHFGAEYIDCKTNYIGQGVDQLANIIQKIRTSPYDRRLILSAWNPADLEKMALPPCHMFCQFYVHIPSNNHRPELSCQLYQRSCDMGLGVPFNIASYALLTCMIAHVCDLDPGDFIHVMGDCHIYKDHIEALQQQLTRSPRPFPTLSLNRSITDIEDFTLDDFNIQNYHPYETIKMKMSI
reported_metric: pKi
Keep in mind that pKi stands for -log10 of concentration in molar terms.

Please tell me the measured pKi for O=C1OC(c2ccc(O)c(Br)c2)(c2ccc(O)c(Br)c2)c2cccc3c(Cl)ccc1c23 ; system: Thymidylate synthase (Pneumocystis carinii, UniProt P13100). 4.55
